Assay: recombinant UMI read abundance after kanamycin selection (control-corrected) (log10(CPM+1)); higher = more efficient recombination; extreme values may be limits of the assay; sequences stand for … in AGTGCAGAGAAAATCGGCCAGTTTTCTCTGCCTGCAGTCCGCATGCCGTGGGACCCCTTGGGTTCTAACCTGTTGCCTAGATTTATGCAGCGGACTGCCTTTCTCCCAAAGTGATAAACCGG…AGGTTGGTTTCACT; site = the 11-nt donor;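 further: IS621 bridge recombinase in Escherichia coli cells against a fixed T5 target plasmid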

| chain-sequence | recombinant UMI read abundance (log10) |
| --- | --- |
| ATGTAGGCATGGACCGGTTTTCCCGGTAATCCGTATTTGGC (site ATGAAGGCTGC) | 2.35 |
| CTGATACCATGGACCGGTTTTCCCGGTAATCCGTATTTGCT (site CTGGTACCTAG) | 0 |
| ACATTATCATGGACCGGTTTTCCCGGTAATCCGTATTTGCA (site ACAGTATCTTG) | 1.69 |
| TAGCCTTCATGGACCGGTTTTCCCGGTAATCCGTATTTGAT (site TAGCCTTCTAG) | 0 |
| CGTTGTTCATGGACCGGTTTTCCCGGTAATCCGTATTTGTA (site CGTTGTTCTTA) | 2.19 |
